# protocol: measured Brain/Blood verification experiment in BALB/c mice
# Assay type: in vivo
# experimental_setup: mouse, 5 mg/kg, five minutes after administration, brain homogenate vs plasma
measurement_type: Kp at 5 min
One number for each entry.

# get_value(readout='Kp at 5 min', item= `NC(N)=Nc1nc(CSCCC(N)=NS(N)(=O)=O)cs1` )
0.1

Data provenance is patent US10149840B2.
